- assay.protocol: chemical genetic growth profiling, strain panel (AID 1159580);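 note: tested at 20 µM; growth read once vehicle control cultures reached saturation at 30 °C; 1 = growth at the plate median or of vehicle wells; lower values mean less growth of the strain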
- test.settings: S. cerevisiae deletion strains, growth OD, locus YLR330W, strain CHS5, hits give low values
Among all 5,500 compounds or so, about 2,000 (36%) were called active. Not shown: some 18% with an inconclusive outcome. Some of the results follow.
observation.type: normalized growth
Lab note: record just the number, no unit beside it.

>>> print(df.to_string())
                                   molecule  recorded_number
0  CC(C)CCCC(C)C1CCC2C3=CC[C@H]4C[C@@H](O)CC[C@]4(C)C3CC[C@@]21C (some centres undefined)             1.04
1  CC(C)CCCC(C)C1CCC2C3C[C@@H](O)[C@@]4(O)C[C@@H](O)CC[C@]4(C)C3CC[C@]12C (some centres undefined)                1
2  CC(C)CCCC(C)[C@H]1CCC2C3CC=C4C[C@@H](O)CC[C@]4(C)C3CC[C@@]21C (some centres undefined)             1.02

We now examine a further molecule.
Looking for the measured normalized growth of CC(C)CCCC(C)[C@H]1CCC2C3CC[C@@H]4C[C@H](O)CC[C@]4(C)C3CC[C@@]21C (some centres undefined) , can you help?
1.01

----------
- assay.protocol: chemical genetic growth profiling, strain panel (AID 1159580);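 note: tested at 20 µM; growth read once vehicle control cultures reached saturation at 30 °C; 1 = growth at the plate median or of vehicle wells; lower values mean less growth of the strain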
- test.settings: S. cerevisiae deletion strains, growth OD, locus YER110C, hits give low values
The campaign covered roughly 5,500 compounds. About 2,000 (36%) were called active. Not shown: some 18% with an inconclusive outcome. The list shows a part of the results.
observation.type: normalized growth
Lab note: record just the number, no unit beside it.

Sample answers from the record:
compound	normalized growth
O=C(O)c1ccc(S(=O)(=O)N(Cl)Cl)cc1	1.03
CC12CCC(O)CC1CCC1C2[C@H](O)CC2(C)C(C3=CC(=O)OC3)CCC12O (some centres undefined)	0.988
CN(C)C1C(=O)C(C(N)=O)=C(O)C2(O)C(=O)C3=C(O)c4c(O)ccc(Cl)c4C(C)(O)C3CC12 (centres undefined)	0.984
Cc1ccc2c(c1)C1(C)CCCC(C)(C(=O)O)C1CC2 (centres undefined)	0.991
NC1=NCCN1CC(=O)O	0.988

Looking for the measured normalized growth of O=C(NCO)c1cccnc1 , can you help?
0.97

Looking for the measured normalized growth of COc1ccc([C@@H]2CC(=O)c3c(O)cc(O[C@@H]4O[C@H](CO[C@H]5O[C@@H](C)[C@H](O)[C@@H](O)[C@H]5O)[C@@H](O)[C@H](O)[C@H]4O)cc3O2)cc1O , can you help?
0.973

Looking for the measured normalized growth of CCOC(=O)NNc1nncc2ccccc12 , can you help?
0.972

----------
- assay.protocol: chemical genetic growth profiling, strain panel (AID 1159580);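 note: tested at 20 µM; growth read once vehicle control cultures reached saturation at 30 °C; 1 = growth at the plate median or of vehicle wells; lower values mean less growth of the strain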
- test.settings: S. cerevisiae deletion strains, growth OD, locus YOR184W, strain ser1, hits give low values
Among all 5,500 compounds or so, about 2,000 (36%) were called active. Roughly 18% stayed inconclusive and do not appear here. The list shows a part of the results.
Measured normalized growth, listed per entry.
Lab note: record just the number, no unit beside it.

compound	observation.type	recorded.number
CC(=O)O[C@@H]1CC2C(C)(C)C(=O)C=C[C@]2(C)C2CC[C@]3(C)C(=CC(=O)O[C@H]3c3ccoc3)[C@@]21C (stereo not given in full)	normalized growth	0.935
CC(=O)Oc1ccc(C(c2ccc(OC(C)=O)cc2)c2ccccn2)cc1	normalized growth	1.01

We now examine a further compound.
Looking for the measured normalized growth of O=C(O)c1cc(O)c2c(c1)[C@@H]([C@H]1c3cc(C(=O)O)cc(O)c3C(=O)c3c(O[C@H]4O[C@H](CO)[C@@H](O)[C@H](O)[C@H]4O)cccc31)c1cccc(O[C@H]3O[C@H](CO)[C@@H](O)[C@H](O)[C@H]3O)c1C2=O , can you help?
1.02
